ASSAY_REMARKS: NCI Yeast Anticancer Drug Screen. Data for the rad50 strain (AID 155);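 note: 0% = growth of vehicle-only cultures of the same strain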
CONDITION_SUMMARY: S. cerevisiae rad50 strain growth inhibition; at 50.0 µM (retest, dose inferred, filed as 5.0); active compounds read high
About 79,000 compounds went through this panel and 15% of them were active in at least one assay; those are over-represented in the sample as a whole.
Threshold check on growth inhibition: at or above 90% gives Satisfied, strictly below gives Not satisfied.

CCOP(=O)(Oc1ccc([N+](=O)[O-])cc1)c1ccccc1C(C)C (stereo unspecified)    Not satisfied
C[N+](C)(C)CC1CCCC(C[N+](C)(C)C)C1=O (stereo unspecified)    Not satisfied
O=c1oc2ccccc2c(O)c1C(c1ccc(/C=C/c2ccccc2)cc1)c1c(O)c2ccccc2oc1=O    Satisfied
Cc1ccc2ccccc2c1NC1=NCCO1    Not satisfied
CC1C(=O)OCC1(C)O (stereo unspecified)    Not satisfied

query: Does "CN(CCc1ccc(Br)cc1)CCN1CCCCC1" have a reported growth inhibition of at least 90%?
result: Not satisfied

query: Does CCC[CH2][Sn]1([CH2]CCC)[O]CC(CN2CCCC2)[O]1 (stereo unspecified) have a reported growth inhibition of at least 90%?
result: Satisfied

query: Does "Nc1ccc(Cl)cc1C(=O)c1ccccc1Cl" have a reported growth inhibition of at least 90%?
result: Satisfied

query: Does "C(=C/P(c1ccccc1)c1ccccc1)/P(c1ccccc1)c1ccccc1.C(=CP(c1ccccc1)c1ccccc1)P(c1ccccc1)c1ccccc1.[Pt]" have a reported growth inhibition of at least 90%?
result: Not satisfied

query: Does "COc1cc2ccccc2c2cc([N+](=O)[O-])oc12" have a reported growth inhibition of at least 90%?
result: Not satisfied

----------
ASSAY_REMARKS: NCI Yeast Anticancer Drug Screen. Data for the sgs1 mgt1 strain (AID 161);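 note: 0% = growth of cultures given vehicle only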
CONDITION_SUMMARY: S. cerevisiae sgs1 mgt1 strain, at 5.0 µM (retest, dose inferred, filed as 0.5), active compounds read high
Compounds without any hit were thinned out: in the full panel of roughly 79,000, 15% have a hit.
Threshold check on growth inhibition: at or above 20% gives yes (1), strictly below gives no (0).

These solved cases illustrate the format of a correct answer.
O=[N+]([O-])/C=C/c1ccccc1    yes (1)
O=C1c2ccccc2[Se](=O)N1c1ccccc1 (stereo unspecified)    yes (1)
[Br][Hg][CH2]COC[CH2][Hg][Br]    yes (1)

query: Does c1cc2c(cc1C1OC[C@H]3[C@@H](c4ccc5c(c4)OCO5)OC[C@@H]13)OCO2 (stereo partly specified) have a reported growth inhibition of at least 20%?
result: no (0)

query: Does COc1ccc(CC2C(=O)NC(C)C(=O)N(C)C3C(=O)N(C)C(Cc4ccc(O)c(c4)Oc4ccc(cc4)C3O)C(=O)NC(C)C(=O)NC(C)C(=O)N2C)cc1 (stereo unspecified) have a reported growth inhibition of at least 20%?
result: no (0)

query: Does CC(Cl)CNC(C)C (stereo unspecified) have a reported growth inhibition of at least 20%?
result: no (0)

----------
ASSAY_REMARKS: NCI Yeast Anticancer Drug Screen. Data for the rad18 strain (AID 177)
CONDITION_SUMMARY: S. cerevisiae rad18 mutant growth inhibition; at 11.0 µM; active compounds read high
About 79,000 compounds went through this panel and 15% of them were active in at least one assay; those are over-represented in the sample as a whole.
MEASURE: growth inhibition (%)
All answers are understood in %, so give the number only.

Reference set (8 entries):
CCOC(=O)C1([Se]c2ccccc2)CCCC1=O (centres undefined)    30
CCS(=O)(=O)[O][Sn]([CH2]C)([CH2]C)[O]S(=O)(=O)CC    -17
C[C@]12CCC(=O)C=C1CC[C@@H]1C2CC[C@@]2(C)C1CC[C@@H]2OC(=O)C12OC1CCC2=O (some centres undefined)    39
O=C(c1ccccc1)C1C(c2ccccc2[N+](=O)[O-])N1C1CCCCC1 (centres undefined)    65
CC(=O)O/C(=C1\C[C@H]2[C@@H]3CC=C4C[C@@H](OC(C)=O)CC[C@]4(C)[C@H]3CC[C@]2(C)C1=O)C(F)(F)F    3
c1cc2c(cc1C1OC[C@H]3[C@@H](c4ccc5c(c4)OCO5)OC[C@@H]13)OCO2 (some centres undefined)    -4
COc1ccc(OC)c(/C=C/[N+](=O)[O-])c1    20
Nc1nc(N)c2c(Cl)c(CNc3ccc(C(=O)NC(CC(=O)O)C(=O)O)cc3)ccc2n1 (centres undefined)    57

Kindly consider the entry below.
query: Could you tell me which growth inhibition is on file for CC(Cc1ccccc1)N(C)Cc1nc(C2CCC([N+](=O)[O-])O2)no1 (centres undefined) ?
result: 69
